- assayed-target: STAT5a (Homo sapiens, UniProt P42229)
- Construct: endogenous in cells; host or cells: K-562 and MCF-7 cells (nuclear extracts)
- Sequence (P42229 whole entry): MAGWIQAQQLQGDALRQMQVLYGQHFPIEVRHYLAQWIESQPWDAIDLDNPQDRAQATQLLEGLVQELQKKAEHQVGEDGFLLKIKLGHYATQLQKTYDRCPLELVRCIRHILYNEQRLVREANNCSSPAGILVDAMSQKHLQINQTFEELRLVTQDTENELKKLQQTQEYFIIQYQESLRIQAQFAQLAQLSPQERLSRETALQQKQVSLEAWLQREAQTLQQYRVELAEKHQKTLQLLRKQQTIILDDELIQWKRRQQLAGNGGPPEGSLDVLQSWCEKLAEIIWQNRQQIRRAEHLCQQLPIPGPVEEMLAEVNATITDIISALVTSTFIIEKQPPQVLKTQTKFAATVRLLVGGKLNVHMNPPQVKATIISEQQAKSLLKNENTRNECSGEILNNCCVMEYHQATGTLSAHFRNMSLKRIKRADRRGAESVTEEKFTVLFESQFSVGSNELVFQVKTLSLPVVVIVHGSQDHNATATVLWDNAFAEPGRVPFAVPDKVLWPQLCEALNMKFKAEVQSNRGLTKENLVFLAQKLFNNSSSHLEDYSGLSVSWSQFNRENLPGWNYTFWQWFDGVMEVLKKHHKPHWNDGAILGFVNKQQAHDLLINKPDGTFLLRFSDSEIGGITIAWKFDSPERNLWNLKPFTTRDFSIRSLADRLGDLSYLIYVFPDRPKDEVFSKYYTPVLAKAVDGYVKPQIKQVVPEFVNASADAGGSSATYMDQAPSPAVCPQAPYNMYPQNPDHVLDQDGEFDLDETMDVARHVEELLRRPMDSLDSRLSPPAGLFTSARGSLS
- assay-info: TransAM STAT5a activation assay on nuclear extracts of treated cells
- Format: cell-based
- test-conditions: MCF7 cells, 24 h, read-out: Inhibition IC50 (µM) STAT5a
property: IC50 (µM)

1. COc1ccc(/C=C/C(=O)c2ccc(NC(=O)CSc3nc(-c4ccc(C)cc4)cc(-c4ccc(OC)cc4)n3)cc2)cc1 [Compound 9a]	83.8
2. C1=C/COCc2cc(ccc2OCCN2CCCC2)Nc2nccc(n2)-c2cccc(c2)COC/1 [Pacritinib, reference compound]	54.4
3. COc1cc(/C=C/C(=O)c2ccc(NC(=O)CSc3nc(-c4ccc(Cl)cc4)cc(-c4ccc(OCCCl)cc4)n3)cc2)cc(OC)c1OC [Compound 9r]	63.2

* * *

- Tested on: HT-29
- assay-info: MTT cytotoxic assay, colon HT-29 cell line
- Assay type: cell-based
- test-conditions: Homo sapiens, read-out: (IC50 μM)±SD HT-29
property: IC50 (µM)
# output: bare number, implied unit µM

Record excerpt, results attached:
1. COc1ccc(/C=C/C(=O)c2ccc(NC(=O)CSc3nc(-c4ccc(C)cc4)cc(-c4ccc(Cl)cc4)n3)cc2)cc1	6.26
2. COc1cc(/C=C/C(=O)c2ccc(NC(=O)CSc3nc(-c4ccc(Cl)cc4)cc(-c4ccc([N+](=O)[O-])cc4)n3)cc2)cc(OC)c1OC	3.62
3. COc1ccc(-c2cc(-c3ccc(C)cc3)nc(SCC(=O)Nc3ccc(C(=O)/C=C/c4cc(OC)c(OC)c(OC)c4)cc3)n2)cc1	8.7
4. COc1cc(/C=C/C(=O)c2ccc(NC(=O)CSc3nc(-c4ccc(Cl)cc4)cc(-c4ccc(OCCCl)cc4)n3)cc2)cc(OC)c1OC	4.74
5. COc1ccc(/C=C/C(=O)c2ccc(NC(=O)CSc3nc(-c4ccc(C)cc4)cc(-c4ccc(OC)cc4)n3)cc2)cc1	2.2

Look at this compound and give its reported IC50. `COc1ccc(-c2cc(-c3ccc(C)cc3)nc(SCC(=O)Nc3ccc(C(=O)/C=C/c4ccc(OC)c(OC)c4)cc3)n2)cc1`
16.4

So what does the record say about IC50 for `COc1ccc(/C=C/C(=O)c2ccc(NC(=O)CSc3nc(-c4ccc(OC)cc4)cc(-c4ccc([N+](=O)[O-])cc4)n3)cc2)cc1` ?
25.9

Fill blank: measured IC50 of the compound `COc1ccc(/C=C/C(=O)c2ccc(NC(=O)CSc3nc(-c4ccc(Cl)cc4)cc(-c4ccc([N+](=O)[O-])cc4)n3)cc2)cc1` is ____.
7.9

Find the recorded IC50 belonging to `COc1ccc(/C=C/C(=O)c2ccc(NC(=O)CSc3nc(-c4ccc(Cl)cc4)cc(-c4ccc(OCCCl)cc4)n3)cc2)cc1` and report it.
11.6

* * *

- assay-info: in vitro
- test-conditions: human
pIC50: −log10 of the molar value.
property: pIC50

# pIC50 lookup, item `COc1ccc(/C=C/C(=O)c2ccc(NC(=O)CSc3nc(-c4ccc(Cl)cc4)cc(-c4ccc([N+](=O)[O-])cc4)n3)cc2)cc1OC`
4.40 to 4.53

Item `COc1ccc(/C=C/C(=O)c2ccc(NC(=O)CSc3nc(-c4ccc(OC)cc4)cc(-c4ccc([N+](=O)[O-])cc4)n3)cc2)cc1` has what recorded pIC50?
4.40 to 4.53

Report pIC50 for `COc1ccc(-c2cc(-c3ccc([N+](=O)[O-])cc3)nc(SCC(=O)Nc3ccc(C(=O)/C=C/c4cc(OC)c(OC)c(OC)c4)cc3)n2)cc1` please.
4.40 to 4.53

Consider the molecule `COc1ccc(/C=C/C(=O)c2ccc(NC(=O)CSc3nc(-c4ccc(C)cc4)cc(-c4ccc(OC)cc4)n3)cc2)cc1` and give its measured pIC50.
4.77

Need pIC50, item `COc1cc(/C=C/C(=O)c2ccc(NC(=O)CSc3nc(-c4ccc(Cl)cc4)cc(-c4ccc(OCCCl)cc4)n3)cc2)cc(OC)c1OC`
4.40 to 4.53
